- Measured on: AMAN-2 (Golgi α-mannosidase) (Caenorhabditis elegans)
- Sequence (Q2PJ74 27-1145): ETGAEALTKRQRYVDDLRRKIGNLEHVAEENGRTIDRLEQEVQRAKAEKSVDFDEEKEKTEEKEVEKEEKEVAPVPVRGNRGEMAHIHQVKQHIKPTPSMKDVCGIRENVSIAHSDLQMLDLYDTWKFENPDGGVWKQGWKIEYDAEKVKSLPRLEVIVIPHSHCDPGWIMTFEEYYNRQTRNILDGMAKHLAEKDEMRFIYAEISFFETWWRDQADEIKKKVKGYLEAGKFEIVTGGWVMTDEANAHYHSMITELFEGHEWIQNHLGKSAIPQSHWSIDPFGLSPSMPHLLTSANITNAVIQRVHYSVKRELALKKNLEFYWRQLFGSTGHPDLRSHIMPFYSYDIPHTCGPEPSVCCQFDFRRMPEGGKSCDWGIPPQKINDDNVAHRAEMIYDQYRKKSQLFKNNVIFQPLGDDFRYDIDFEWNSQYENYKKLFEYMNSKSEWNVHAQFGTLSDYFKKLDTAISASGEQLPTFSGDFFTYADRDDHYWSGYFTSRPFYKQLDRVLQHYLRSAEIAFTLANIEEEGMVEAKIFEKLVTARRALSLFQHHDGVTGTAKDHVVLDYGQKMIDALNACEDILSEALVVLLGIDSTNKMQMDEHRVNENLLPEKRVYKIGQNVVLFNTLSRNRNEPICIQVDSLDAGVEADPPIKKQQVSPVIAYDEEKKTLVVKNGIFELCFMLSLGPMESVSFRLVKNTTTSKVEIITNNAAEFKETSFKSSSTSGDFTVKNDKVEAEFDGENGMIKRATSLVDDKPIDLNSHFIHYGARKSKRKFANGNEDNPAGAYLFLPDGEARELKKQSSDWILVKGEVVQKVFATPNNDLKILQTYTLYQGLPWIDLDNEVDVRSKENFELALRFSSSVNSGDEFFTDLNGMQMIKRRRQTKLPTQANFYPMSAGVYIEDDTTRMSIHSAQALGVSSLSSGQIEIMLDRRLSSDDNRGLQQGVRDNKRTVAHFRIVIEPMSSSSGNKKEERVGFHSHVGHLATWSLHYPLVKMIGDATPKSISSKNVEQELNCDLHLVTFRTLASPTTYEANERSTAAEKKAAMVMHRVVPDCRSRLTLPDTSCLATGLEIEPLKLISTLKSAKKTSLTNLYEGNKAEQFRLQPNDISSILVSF
- Run description: α-mannosidase inhibition assay with pNP-Man, AMAN-2
- Assay type: biochemical
- Conditions used: selectivity index
Reported SI^b = IC50(JBMan)/IC50(AMAN-2) values for a set of compounds
API doc: respond with a numeric literal and nothing else, no unit.

Study these solved cases before continuing.
Compound | SI^b = IC50(JBMan)/IC50(AMAN-2)
OCC1C(O)C(O)CN1Cc1ccc(I)cc1 (stereo not drawn) | 269
OCC1C(O)C(O)CN1CCc1cccc2ccccc12 (stereo not drawn) | 86
OC[C@@H]1[C@H](O)[C@H](O)CN1Cc1ccccc1 | 124
OC[C@@H](O)[C@H]1NC[C@@H](O)[C@H]1O [DIM, 1,4-dideoxy-1,4-imino-D-mannitol, reference compound] | 1
Cl.N=C(N)NCCCCCCCCCCN1C[C@@H](O)[C@@H](O)[C@H]1CO | 3

Turning now to a further record.
Input: Query SI^b = IC50(JBMan)/IC50(AMAN-2) for OC[C@@H]1[C@H](O)[C@H](O)CN1Cc1ccc2ccccc2c1
Output: 812
